Answer each item with its documented Percentage of motility inhibition 0 h.
# System: C. elegans
# cond: Table S2, C. elegans SS assay, 110 μM, 0 h, averages of 4 data points

// recorded Percentage of motility inhibition 0 h for COc1ccc(C[C@@H]2COc3c(C)c(O)c(C)c(O)c3C2=O)cc1 : 0%

// recorded Percentage of motility inhibition 0 h for CO/N=C(\C(=O)N[C@@H]1C(=O)N2C(C(=O)[O-])=CCS[C@H]12)c1csc(N)n1.[Na+] [Ceftizoxime (sodium)] : 0%

// recorded Percentage of motility inhibition 0 h for C[C@]1(C(=O)O)CC[C@]2(C)CC[C@]3(C)C(=CC(=O)[C@@H]4[C@@]5(C)CC[C@H](O[C@@H]6O[C@H](C(=O)O)[C@@H](O)[C@H](O)[C@H]6O[C@@H]6O[C@H](C(=O)O)[C@@H](O)[C@H](O)[C@H]6O)[C@](C)(CO)[C@@H]5CC[C@]43C)[C@@H]2C1 : 2%

// recorded Percentage of motility inhibition 0 h for O.O.O.O.O=C([O-])CC(O)(CC(=O)[O-])C(=O)[O-].[Li+].[Li+].[Li+] [Lithium citrate (tetrahydrate)] : 13%

// recorded Percentage of motility inhibition 0 h for Cl.O=C(O)c1cn(-c2ccc(F)cc2)c2cc(N3CCNCC3)c(F)cc2c1=O [Sarafloxacin (hydrochloride)] : 32%

// recorded Percentage of motility inhibition 0 h for Cc1ccn(C)n1 : 6%

// recorded Percentage of motility inhibition 0 h for CC(=O)O[C@@]12CO[C@@H]1C[C@H](O)[C@@]1(C)C(=O)[C@H](O)C3=C(C)[C@@H](OC(=O)[C@H](O)[C@@H](NC(=O)c4ccccc4)c4ccccc4)C[C@@](O)([C@@H](OC(=O)c4ccccc4)[C@H]21)C3(C)C : 17%

// recorded Percentage of motility inhibition 0 h for COc1ccc(-c2oc3cc(OC)c(OC)c(O)c3c(=O)c2OC)cc1OC : 0%

// recorded Percentage of motility inhibition 0 h for C[C@@H]1O[C@@H](O[C@@H]2[C@@H](O)[C@H](O)[C@@H](CO)O[C@H]2c2c(O)cc(O)c3c(=O)cc(-c4ccc(O)cc4)oc23)[C@H](O)[C@H](O)[C@H]1O [Vitexin‐2"‐O‐rhamnoside] : 2%

// recorded Percentage of motility inhibition 0 h for COc1ccc2c3c1O[C@H]1C[C@@H](O)C=C[C@@]31CCNC2 : 0%

// recorded Percentage of motility inhibition 0 h for N=C(N)NCCC[C@H](N)C(=O)O.N[C@@H](CCC(=O)O)C(=O)O [L-Arginine (L-glutamate)] : 22%

// recorded Percentage of motility inhibition 0 h for C=C(C(=O)O)[C@@H]1CC[C@@H](C)[C@@H]2CCC(C)=C[C@@H]21 : 1%

// recorded Percentage of motility inhibition 0 h for CCNCc1nc2c(N)nc3ccccc3c2n1CC(C)(C)O.O=C(O)C(F)(F)F [Gardiquimod trifluoroacetate] : 33%

// recorded Percentage of motility inhibition 0 h for CC(=O)OC(C)(C)CCC(=O)[C@](C)(O)[C@H]1[C@H](O)C[C@@]2(C)[C@@H]3CC=C4[C@@H](C[C@H](O)C(=O)C4(C)C)[C@]3(C)C(=O)C[C@]12C [Dihydrocucurbitacin B] : 0%

// recorded Percentage of motility inhibition 0 h for COc1c(O[C@@H]2O[C@H](C(=O)O)[C@@H](O)[C@H](O)[C@H]2O)cc2oc(-c3ccccc3)cc(=O)c2c1O [Oroxylin A‐7‐O‐glucuronide] : 0%

// recorded Percentage of motility inhibition 0 h for C[C@@]1(C(=O)O)CC[C@]2(C)CC[C@]3(C)C4=CC(=O)c5c(cc(O)c(O)c5C=O)[C@]4(C)CC[C@@]3(C)[C@@H]2C1 : 0%

// recorded Percentage of motility inhibition 0 h for C=C1C[C@@]2(O)O[C@@]3(C[C@H]2C(C)C)[C@@H](C)CC[C@@H]13 : 8%

// recorded Percentage of motility inhibition 0 h for O=c1c(O[C@@H]2O[C@H](CO[C@@H]3O[C@H](CO)[C@@H](O)[C@H](O)[C@H]3O)[C@@H](O)[C@H](O)[C@H]2O)c(-c2ccc(O)c(O)c2)oc2cc(O)cc(O)c12 [Quercetin 3‐gentiobioside] : 42%

// recorded Percentage of motility inhibition 0 h for CO/N=C(\C(=O)N[C@@H]1C(=O)N2C(C(=O)[O-])=C(COC(N)=O)CS[C@H]12)c1ccco1.[Na+] [Cefuroxime (sodium)] : 19%

// recorded Percentage of motility inhibition 0 h for CCN1C[C@]2(COC)[C@H](O)C[C@H](OC)[C@@]34[C@@H]5C[C@@]6(O)[C@H](OC(=O)c7ccccc7)[C@@H]5[C@@](O)([C@@H]([C@H](OC)[C@H]23)[C@@H]14)[C@@H](O)[C@@H]6OC : 2%

// recorded Percentage of motility inhibition 0 h for NC(=O)c1ncn([C@@H]2O[C@H](CO)[C@@H](O)[C@H]2O)c1N.O=P(O)(O)O [AICAR (phosphate)] : 20%

// recorded Percentage of motility inhibition 0 h for C=C1C2CCC3(C4C[C@H]5C6(CCC[C@@]5(C)CN(CC)C46)[C@H]3[C@H]2O)[C@@H]1O : 0%

* * *

# System: C. elegans
# protocol_description: microbe, parasite or virus in culture
# cond: Caenorhabditis elegans, 24 h, read-out: Percentage of motility inhibition 24 h, Table S2, C. elegans SS assay, 110 μM, 24 h, averages of 4 data points
*1 amine or outer side, *2 acyl side, *3 side chain or, on linkers, in order; H or OH if unused. Where a SMILES comes first, the peptide text is derived from it. Bridges are numbered along the chain shown (N, C = ends). [ ]: non-standard residue; d: D form. The star is where a group is joined. pTerphenylCO(4''-OnC5H11) = CCCCCOc1ccc(-c2ccc(-c3ccc(C(=O)*)cc3)cc2)cc1; Orn(4R-OH,5R-OH) = O=C([C@H](C[C@@H](O)[C@@H](O)N[*:3])N[*:1])[*:2]; hTyr(3S-OH,4S-OH) = N[C@H](C(=O)O)[C@H](O)[C@@H](O)c1ccc(O)cc1; Pro(3S-OH,4S-Me) = C[C@H]1CN[C@H](C(=O)O)[C@H]1O; Hyp = O=C(O)[C@@H]1C[C@@H](O)CN1
Answer each item with its documented inhibition at 110 µM.
# output: bare number, implied unit %

// recorded inhibition at 110 µM for C[C@@H]1C[C@@H](O)[C@@]2(O)[C@@]13C[C@@H](OC(=O)[C@H]3O)[C@](C)(O)[C@@]21COC1=O [Anisatin] : 20

// recorded inhibition at 110 µM for CN1CCN(c2c(F)cc3c(=O)c(C(=O)O)cn4c3c2OCN4C)CC1 [Marbofloxacin] : 9

// recorded inhibition at 110 µM for Cc1ccc(C(C)C)cc2c(C)ccc1-2 [Guaiazulene] : 24

// recorded inhibition at 110 µM for CC[C@H]1OC(=O)[C@H](C)[C@@H](O[C@H]2C[C@@](C)(OC)[C@@H](O)[C@H](C)O2)[C@H](C)[C@@H](O[C@@H]2O[C@H](C)C[C@H](N(C)C)[C@H]2O)[C@](C)(OC)C[C@@H](C)C(=O)[C@H](C)[C@@H](O)[C@]1(C)O [Clarithromycin] : 10

// recorded inhibition at 110 µM for Cc1cc(C)nc(NS(=O)(=O)c2ccc(N)cc2)n1 [Sulfamethazine] : 3

// recorded inhibition at 110 µM for O=C1C[C@@H](c2ccc(O)c(O)c2)Oc2cc(O)cc(O)c21 [Eriodictyol] : 14

// recorded inhibition at 110 µM for O=C(O)c1ccncc1 [Isonicotinic acid] : 0

// recorded inhibition at 110 µM for CCCCCOc1ccc(-c2ccc(-c3ccc(C(=O)N[C@H]4C[C@@H](O)[C@@H](O)NC(=O)[C@@H]5[C@@H](O)[C@@H](C)CN5C(=O)[C@H]([C@@H](C)O)NC(=O)[C@H]([C@H](O)[C@@H](O)c5ccc(O)cc5)NC(=O)[C@@H]5C[C@@H](O)CN5C(=O)[C@H]([C@@H](C)O)NC4=O)cc3)cc2)cc1 [Anidulafungin] ({pTerphenylCO(4''-OnC5H11)}-[Orn(4R-OH,5R-OH)]T[Hyp][hTyr(3S-OH,4S-OH)]T[Pro(3S-OH,4S-Me)]; lactam 1-C) : 61

// recorded inhibition at 110 µM for C=C1C(=O)O[C@@]23[C@H]1CC[C@@H](C)[C@@H]2CC[C@@]1(C)O[C@@H]31 [Arteannuin B] : 11

// recorded inhibition at 110 µM for O=c1c(O)c(-c2ccc(O)c(O)c2)oc2cc(O[C@@H]3O[C@H](CO)[C@@H](O)[C@H](O)[C@H]3O)cc(O)c12 [Quercimeritrin] : 3

// recorded inhibition at 110 µM for CC1=C(O)C(=O)C=C2C1=CC=C1[C@@]2(C)CC[C@@]2(C)[C@@H]3C[C@](C)(C(=O)O)CC[C@]3(C)CC[C@]12C [Celastrol] : 13

// recorded inhibition at 110 µM for O=C1OCCN1/N=C/c1ccc([N+](=O)[O-])o1 [Furazolidone] : 7

// recorded inhibition at 110 µM for O=C(NCNC(=O)NC1C(=O)NC(=O)N1CO)NC1C(=O)NC(=O)N1CO (stereo not shown) [Imidazolidinyl urea] : 10
